# TARGET_SYSTEM: PDZRN4_1, Q6ZMN7
# Sequence (Q6ZMN7 213-318): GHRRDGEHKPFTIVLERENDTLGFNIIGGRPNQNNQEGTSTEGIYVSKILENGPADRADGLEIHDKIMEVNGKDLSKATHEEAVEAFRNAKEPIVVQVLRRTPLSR
# EXPERIMENT: holdup assay
# Parameters: key: below the threshold = too weak to quantify, mostly under pKd 3.1 to 4
# RECORDED_CONDITIONS: plain residues with an end cap or a label only (N-terminal biotin on a linker: ado-ado)
ASSAY_ENDPOINT: pKd

Examples from the recorded data:
> print(dat)
                         binder  assay.endpoint      measured.result
1      MLPANYVEAI [NEB, P20929]             pKd  below the threshold
2    QRYPGNQTTC [CCL24, O00175]             pKd  below the threshold
3     RDYTQSSSSL [GRM5, P41594]             pKd  below the threshold
4      SRPHTNETSL [MCC, P23508]             pKd                 5.22
5     KPDKQEEFYA [SDC3, O75056]             pKd  below the threshold
6    ATKDKKITTV [EXOC4, Q96A65]             pKd                 3.82
7   IQISELETNV [SLC1A7, O00341]             pKd                 4.03
8  SAGADSETHC [SLCO1B1, Q9Y6L6]             pKd  below the threshold

In the following, a different binder is considered.
input: Give its pKd value. Item: GTMFLRETSL [GUCY1A2, P33402]
output: 5.71
